Assay: Solubility of the compound in phospahte-buffered saline buffer at pH 7.4 incubated for 2 hrs by HPLC/UV analysis
Type: physicochemical
Settings: phosphate-buffered saline

# chemical-string, solubility at 2 h (µM)
rows = [
    ("Cn1c(Cl)cnc1CNc1ccc2sncc2c1", 215),
    ("Clc1cnc(CNc2ccc3cnsc3c2)s1", 511),
    ("Clc1cnc(CNc2ccc3sncc3c2)s1", 50),
    ("Clc1cnc(CNc2cc3sncc3cc2Cl)s1", 30),
]

* * *

Biological target: Transient receptor potential cation channel subfamily M member 4 (Homo sapiens, UniProt Q8TD43)
Sequence (Q8TD43 whole entry): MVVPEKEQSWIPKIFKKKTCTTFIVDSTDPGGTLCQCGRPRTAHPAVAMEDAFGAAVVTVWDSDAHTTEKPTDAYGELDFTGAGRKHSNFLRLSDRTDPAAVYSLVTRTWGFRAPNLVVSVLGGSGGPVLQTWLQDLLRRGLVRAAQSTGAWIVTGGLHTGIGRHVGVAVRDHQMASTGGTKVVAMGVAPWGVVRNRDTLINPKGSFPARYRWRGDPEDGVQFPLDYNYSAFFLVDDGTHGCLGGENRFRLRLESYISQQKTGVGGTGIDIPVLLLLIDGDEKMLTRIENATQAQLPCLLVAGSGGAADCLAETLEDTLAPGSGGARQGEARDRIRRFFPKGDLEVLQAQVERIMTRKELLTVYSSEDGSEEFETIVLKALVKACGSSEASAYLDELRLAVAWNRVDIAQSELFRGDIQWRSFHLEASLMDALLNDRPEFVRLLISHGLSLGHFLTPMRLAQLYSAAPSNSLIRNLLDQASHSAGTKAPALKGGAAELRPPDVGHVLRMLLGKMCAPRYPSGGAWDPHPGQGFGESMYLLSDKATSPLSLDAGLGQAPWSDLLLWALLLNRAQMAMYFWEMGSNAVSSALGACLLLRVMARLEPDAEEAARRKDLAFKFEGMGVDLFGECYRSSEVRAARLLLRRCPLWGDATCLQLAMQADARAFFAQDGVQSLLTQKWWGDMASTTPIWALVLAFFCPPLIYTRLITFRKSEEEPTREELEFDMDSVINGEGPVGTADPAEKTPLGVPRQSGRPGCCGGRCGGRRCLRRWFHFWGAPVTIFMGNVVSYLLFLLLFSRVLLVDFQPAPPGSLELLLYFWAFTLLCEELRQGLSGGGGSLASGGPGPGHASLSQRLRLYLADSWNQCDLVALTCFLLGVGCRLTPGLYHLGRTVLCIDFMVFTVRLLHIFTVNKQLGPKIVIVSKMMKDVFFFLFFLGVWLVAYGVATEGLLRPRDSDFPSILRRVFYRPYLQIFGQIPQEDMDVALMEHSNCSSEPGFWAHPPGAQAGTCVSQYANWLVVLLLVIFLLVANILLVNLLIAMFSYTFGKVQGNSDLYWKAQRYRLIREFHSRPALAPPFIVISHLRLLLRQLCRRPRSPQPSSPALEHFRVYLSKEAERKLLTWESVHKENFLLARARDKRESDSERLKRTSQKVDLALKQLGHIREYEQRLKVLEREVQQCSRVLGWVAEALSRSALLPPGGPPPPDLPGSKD
Assay: Agonist activity at human TRPM4 expressed in CHO cells assessed as change in membrane potential by FLIPR assay
pEC50: −log10 of the molar value.

# chemical-string, pEC50
rows = [
    ("Clc1cnc(CNc2ccc3sncc3c2)s1", "< 4.20"),
    ("Cn1c(Cl)cnc1CNc1ccc2sncc2c1", "< 4.20"),
    ("Clc1cnc(CNc2ccc3cnsc3c2)s1", "< 4.20"),
    ("Clc1cnc(CNc2cc3sncc3cc2Cl)s1", 5.50),
]

* * *

Test: Clast in CD-1 mouse at 10 mg/kg, po measured up to 24 hrs
Type: ADME, organism-based
Conditions: in vivo, read-out: Clast
parameter: concentration at 24 h (ng/mL)

# chemical-string, parameter, number
data = [
    ("Clc1cnc(CNc2ccc3cnsc3c2)s1", "concentration at 24 h", 2.76),
]

* * *

Test: Protein binding in human plasma assessed as unbound fraction measured after 5 hrs by equilibrium dialysis based HPLC/UPLC-MS/MS analysis
Assay type: ADME, cell-free
Listing of entries alongside the reported fraction unbound at 5 h.

# chemical-string, fraction unbound at 5 h
measured = [
    ("Clc1cnc(CNc2ccc3sncc3c2)s1", "< 0.01"),
    ("Clc1cnc(CNc2cc3sncc3cc2Cl)s1", "< 0.01"),
    ("Clc1cnc(CNc2ccc3cnsc3c2)s1", "< 0.01"),
]

* * *

Test: Drug concentration in C57BL6 mouse plasma at 100 mg/kg, po administered as single dose measured after 24 to 72 hrs by LC-MS/MS analysis
Assay type: ADME, organism-based
Details: in vivo, time 24-72 hrs

# chemical-string, Cp
records = [
    ("Clc1cnc(CNc2cc3sncc3cc2Cl)s1", "< 20 ng/mL"),
]

* * *

Test: Apparent permeability across apical to basolateral membrane in human Caco-2 cells incubated for 30 mins by LC-MS/MS analysis
Type: ADME, cell-based

# chemical-string, Papp A→B at 0.5 h, nm/s
records = [
    ("Cn1c(Cl)cnc1CNc1ccc2sncc2c1", 219),
    ("Clc1cnc(CNc2cc3sncc3cc2Cl)s1", 41),
    ("Clc1cnc(CNc2ccc3sncc3c2)s1", 126),
    ("Clc1cnc(CNc2ccc3cnsc3c2)s1", 107),
]

* * *

Assay: Drug concentration in C57BL6 mouse ileum at 1 mg/kg, po administered as single dose measured after 6 to 48 hrs by LC-MS/MS analysis
Assay type: ADME, organism-based
Settings: in vivo, time 6-48 hrs
parameter: Ct

# chemical-string, parameter, result
data = [
    ("Clc1cnc(CNc2cc3sncc3cc2Cl)s1", "Ct", "< 20 ng/mL"),
]

* * *

Test: Drug concentration in C57BL6 mouse colon at 100 mg/kg, po administered as single dose measured after 48 hrs by LC-MS/MS analysis
Type: ADME, organism-based
Details: read-out: Ct

# chemical-string, concentration at 48 h (ng/g)
data = [
    ("Clc1cnc(CNc2cc3sncc3cc2Cl)s1", 58),
]

* * *

Molecular target: Transient receptor potential cation channel subfamily M member 5 (Homo sapiens)
Experiment: Agonist activity at human TRPM5 expressed in CHO-K1 cells maintained at 80 mV final holding potential by syncroPatch assay
Format: cell-based
parameter: EC50

# chemical-string, experimental-system, parameter, result
data = [
    ("Cn1c(Cl)cnc1CN(CC1CCCCC1)c1ccc2sncc2c1", "Transient receptor potential cation channel subfamily M member 5 (Homo sapiens)", "EC50", "> 31.6 µM"),
    ("Cn1nc(CNc2ccc3sncc3c2)cc1C(F)(F)F", "Transient receptor potential cation channel subfamily M member 5 (Homo sapiens)", "EC50", "> 31.6 µM"),
    ("Cc1cc2sncc2cc1N(C)Cc1ncc(Cl)s1", "Transient receptor potential cation channel subfamily M member 5 (Homo sapiens)", "EC50", "5.25 µM"),
]

* * *

Target: Transient receptor potential cation channel subfamily M member 5 (Homo sapiens, UniProt Q9NZQ8)
Sequence (Q9NZQ8 whole entry): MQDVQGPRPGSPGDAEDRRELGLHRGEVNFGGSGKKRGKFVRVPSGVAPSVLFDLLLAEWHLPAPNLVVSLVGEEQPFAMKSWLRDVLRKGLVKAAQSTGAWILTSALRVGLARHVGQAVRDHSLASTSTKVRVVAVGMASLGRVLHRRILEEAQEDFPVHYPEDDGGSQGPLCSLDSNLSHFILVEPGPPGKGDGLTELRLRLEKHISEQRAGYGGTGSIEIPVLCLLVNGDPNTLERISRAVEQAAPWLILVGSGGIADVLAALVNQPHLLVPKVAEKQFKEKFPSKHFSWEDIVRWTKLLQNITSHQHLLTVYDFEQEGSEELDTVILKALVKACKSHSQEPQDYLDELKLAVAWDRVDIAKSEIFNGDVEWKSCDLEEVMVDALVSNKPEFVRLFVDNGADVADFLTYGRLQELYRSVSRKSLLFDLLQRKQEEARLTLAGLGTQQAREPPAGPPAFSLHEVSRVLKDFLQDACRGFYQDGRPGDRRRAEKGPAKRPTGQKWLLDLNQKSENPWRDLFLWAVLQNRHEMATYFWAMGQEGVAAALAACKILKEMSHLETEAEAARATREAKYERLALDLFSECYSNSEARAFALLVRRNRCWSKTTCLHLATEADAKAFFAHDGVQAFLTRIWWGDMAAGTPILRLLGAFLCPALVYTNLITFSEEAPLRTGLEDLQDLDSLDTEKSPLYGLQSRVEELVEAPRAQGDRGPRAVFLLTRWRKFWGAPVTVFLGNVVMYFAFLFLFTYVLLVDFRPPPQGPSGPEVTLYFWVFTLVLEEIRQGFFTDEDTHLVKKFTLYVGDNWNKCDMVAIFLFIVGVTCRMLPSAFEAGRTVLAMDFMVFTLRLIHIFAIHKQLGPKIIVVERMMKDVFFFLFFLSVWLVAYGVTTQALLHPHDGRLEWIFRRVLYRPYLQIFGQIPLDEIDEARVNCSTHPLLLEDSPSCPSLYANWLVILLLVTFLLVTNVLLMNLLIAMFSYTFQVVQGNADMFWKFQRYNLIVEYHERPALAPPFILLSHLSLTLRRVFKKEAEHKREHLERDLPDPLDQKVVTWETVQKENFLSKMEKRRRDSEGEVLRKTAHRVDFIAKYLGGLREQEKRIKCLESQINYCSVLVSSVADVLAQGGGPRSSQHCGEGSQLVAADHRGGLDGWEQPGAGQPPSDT
Experiment: Agonist activity at human TRPM5 expressed in CHO-K1 cells maintained at 80 mV final holding potential by syncroPatch assay
Assay type: cell-based
parameter: EC50 (µM)

# compound, parameter, relation, number
records = [
    ("Cn1c(Cl)cnc1CNc1ccc2ocnc2c1", "EC50", "=", 16.2),
    ("Cn1c(Cl)cnc1CN1CC(CO)Cc2cccc(F)c21 (centres undefined)", "EC50", "=", 5.01),
    ("c1csc(CNc2ccc3sncc3c2)n1", "EC50", "=", 4.68),
    ("Clc1cnc(CNc2cccc3sncc23)s1", "EC50", ">", 31.6),
    ("CC(=O)N(Cc1ncc(Cl)n1C)c1ccc2sncc2c1", "EC50", ">", 31.6),
    ("Cc1csc(CNc2ccc3sncc3c2)n1", "EC50", ">", 31.6),
    ("Clc1cnc(CNc2cc3cnsc3cc2Cl)s1", "EC50", "=", 0.0245),
    ("Fc1cc2sncc2cc1NCc1ncc(Cl)s1", "EC50", "=", 0.0977),
    ("Cn1c(Cl)cnc1CNc1ccc2cnsc2c1", "EC50", "=", 0.295),
    ("Cn1c(Cl)cnc1CNc1ccc2c(cnn2C)c1", "EC50", "=", 5.25),
    ("Cn1c(Cl)cnc1CNc1ccc2[nH]ncc2c1", "EC50", "=", 6.03),
    ("Clc1cnc(CNc2ccc3cnsc3c2)s1", "EC50", "=", 0.0437),
    ("Clc1cnc(CNc2cccc3cnsc23)s1", "EC50", "=", 1.45),
    ("Clc1cnc(CNc2cc3cnsc3cn2)s1", "EC50", "=", 0.468),
]

* * *

Assay: Intrinsic clearance in mouse liver microsomes assessed per mg protein incubated up to 30 mins in presence of NADPH by LC-MS/MS analysis
Format: ADME, Microsome
Settings: read-out: CLH
Listing of entries alongside the reported microsomal CLint.
parameter: microsomal CLint (µL/min/mg)

# chemical-string, number
records = [
    ("Clc1cnc(COc2ccc3sncc3c2)s1", 763),
    ("Fc1c(NCc2ncc(Cl)s2)ccc2sncc12", 448),
    ("Clc1cnc(CNc2cnc3sncc3c2)s1", 163),
    ("Clc1cnc(CNc2ccc3sncc3n2)s1", 421),
    ("Cc1cc(NCc2ncc(Cl)s2)cc2cnsc12", 434),
    ("Clc1cnc(CNc2ccc3cnsc3c2)s1", 164),
    ("Clc1cnc(CNc2ccc3sncc3c2)s1", 462),
    ("CC(C)(Nc1ccc2sncc2c1)c1ncc(Cl)s1", 250),
    ("Cc1c(NCc2ncc(Cl)s2)ccc2sncc12", 508),
    ("Fc1cc(NCc2ncc(Cl)s2)cc2cnsc12", 612),
    ("Cn1c(Cl)cnc1CNc1ccc2sncc2c1", 446),
    ("Fc1cc2sncc2cc1NCc1ncc(Cl)s1", 312),
    ("Cc1cc2sncc2cc1N(C)Cc1ncc(Cl)s1", 748),
    ("Clc1cnc(CNc2cc3cnsc3cn2)s1", 93),
    ("Clc1cnc(CNc2cc3sncc3cc2Cl)s1", 520),
    ("Clc1cnc(CNc2ccc3sncc3c2Cl)s1", 258),
    ("Clc1cnc(CNc2cc(Cl)c3sncc3c2)s1", 221),
    ("Clc1cnc(CNc2cc3cnsc3cc2Cl)s1", 527),
    ("Cc1cc2sncc2cc1NCc1ncc(Cl)s1", 148),
]

* * *

Test: Drug concentration in C57BL6 mouse colon at 100 mg/kg, po administered as single dose measured after 72 hrs by LC-MS/MS analysis
Type: ADME, organism-based

# chemical-string, concentration at 72 h
rows = [
    ("Clc1cnc(CNc2cc3sncc3cc2Cl)s1", "< 20 ng/mL"),
]

* * *

Assay: Drug concentration in C57BL6 mouse colon at 3 mg/kg, po administered as single dose measured after 24 to 48 hrs by LC-MS/MS analysis
Assay type: ADME, organism-based
Details: in vivo, time 24-48 hrs

# chemical-string, Ct
data = [
    ("Clc1cnc(CNc2cc3sncc3cc2Cl)s1", "< 20 ng/mL"),
]

* * *

Test: Drug concentration in C57BL6 mouse colon at 3 mg/kg, po administered as single dose measured after 6 hrs by LC-MS/MS analysis
Assay type: ADME, organism-based
Conditions: read-out: Ct
parameter: concentration at 6 h

# chemical-string, result
data = [
    ("Clc1cnc(CNc2cc3sncc3cc2Cl)s1", "143 ng/g"),
]
